- Test system: HUVEC
- Method: Cytotoxicity against human HUVEC cells assessed as reduction in cell viability after 48 hrs by MTT assay
- Type: cell-based
Parameter measured: IC50 (µM)
Please respond with the number in µM and leave the unit unwritten.

Line notation | IC50 / µM
Cc1cnc(C(=O)Oc2ccc(C(N)=S)cc2)c[n+]1[O-] | 714
CC(C)(Oc1ccc(Cl)cc1)C(=O)NCCOC(=S)Nc1ccccc1 | 791

Looking for the measured IC50 of CC(C)(Oc1ccc(Cl)cc1)C(=O)Oc1ccc(C(N)=S)cc1 , can you help? 755

Likewise for O=C(Oc1ccc(-c2cc(=S)ss2)cc1)c1cccnc1 ? 562

Likewise for COc1ccc(NC(=S)OCCNC(=O)C(C)(C)Oc2ccc(Cl)cc2)cc1 ? 616
